# Assay Comment: chemical genetic growth profiling, strain panel (AID 1159580);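 also: tested at 20 µM; growth read once vehicle control cultures reached saturation at 30 °C; 1 = growth at the plate median or of vehicle wells; lower values mean less growth of the strain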
# Condition Context: S. cerevisiae deletion strains, growth OD, locus YKR026C, strain gcn3, active compounds read low
Out of some 5,500 compounds screened, about 2,000 (36%) were called active. About 18% were inconclusive and are not listed. Some of the results follow.
API: label(entry) gives met if the entry's normalized growth is strictly smaller than 1; on equality or larger values it gives not met.

The examples below pair each entry with its known result.
Compound: Oc1ccc2c(c1)OCC1(O)Cc3cc(O)c(O)cc3C21 (stereo unspecified)
Group: not met

Compound: CCOC(=O)c1c(C)cc(O)cc1O
Group: met

Compound: CC(=O)Oc1ccc2c(c1C(C)C)CCC1C(C)(C)CCC[C@]21C (stereo partly specified)
Group: not met

q: Lab note: normalized growth threshold 1. Does this compound come in strictly under it? CC(C)N(CCC(C(N)=O)(c1ccccc1)c1ccccn1)C(C)C (stereo unspecified)
a: met

q: Lab note: normalized growth threshold 1. Does this compound come in strictly under it? COc1cc(OC)c2c(=O)c(O)c(-c3ccc(OC)c(OC)c3)oc2c1
a: met

q: Lab note: normalized growth threshold 1. Does this compound come in strictly under it? COc1ccc(-c2oc3c(CC=C(C)C)c(O[C@@H]4O[C@H](CO)[C@@H](O)[C@H](O)[C@H]4O)cc(O)c3c(=O)c2O[C@@H]2O[C@@H](C)[C@H](O)[C@@H](O)[C@H]2O)cc1
a: not met

q: Lab note: normalized growth threshold 1. Does this compound come in strictly under it? CCOC(=O)c1c(C)cc(OC)cc1O
a: met

###

Parameter normalized growth: see the listing below.
# Assay Comment: chemical genetic growth profiling, strain panel (AID 1159580);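 also: tested at 20 µM; growth read once vehicle control cultures reached saturation at 30 °C; 1 = growth at the plate median or of vehicle wells; lower values mean less growth of the strain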
# Condition Context: S. cerevisiae deletion strains, growth OD, locus YLR357W, strain rsc2, active compounds read low
In all, about 5,500 compounds went through this assay and about 2,000 (36%) were called active. Inconclusive results (about 18%) are left out. Some of the results follow.
# print the numeric value only

Compound: CC1(C)C2CC(=O)[C@]3(C)C(CC[C@@]4(C)[C@H](c5ccoc5)OC(=O)[C@H]5O[C@]543)[C@@]2(C)C(=O)C[C@H]1O (stereo partly drawn)
normalized growth: 0.994

q: Any idea what its normalized growth is? The compound is CNC(C)C(O)c1ccccc1 (stereo not drawn)
a: 1.05

q: Any idea what its normalized growth is? The compound is OCC(O)C(O)C(O)C(O)C(O)CO (stereo not drawn)
a: 0.974

###

# Assay Comment: chemical genetic growth profiling, strain panel (AID 1159580);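 also: tested at 20 µM; growth read once vehicle control cultures reached saturation at 30 °C; 1 = growth at the plate median or of vehicle wells; lower values mean less growth of the strain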
# Condition Context: S. cerevisiae deletion strains, growth OD, locus YPL051W, strain arl3, active compounds read low
Out of some 5,500 compounds screened, about 2,000 (36%) were called active. Roughly 18% stayed inconclusive and do not appear here. Some of the results follow.
API: label(entry) gives rule met if the entry's normalized growth is strictly smaller than 1; on equality or larger values it gives rule not met.

The examples below pair each entry with its known result.
Molecule: CC(C)(C)NCC(O)c1cc(O)cc(O)c1 (configuration not stated)
Group: rule met
--
Molecule: O=C(O[C@@H]1Cc2c(O)cc(O)cc2O[C@@H]1c1cc(O)c(=O)c2c(O)c(O)cc([C@H]3Oc4cc(O)cc(O)c4C[C@H]3OC(=O)c3cc(O)c(O)c(O)c3)c2c1)c1cc(O)c(O)c(O)c1
Group: rule met
--
Molecule: CC(C)c1c(O)ccc2c1CCC1C(C)(C)CCC[C@]21C (some centres not stated)
Group: rule met
--
Molecule: O=c1cc(-c2ccc(O)cc2)oc2cc(O[C@@H]3O[C@H](CO)[C@@H](O)[C@H](O)[C@H]3O)cc(O)c12
Group: rule not met
--
Molecule: CCCCCC(=O)Cc1cc(O)cc(O)c1C(=O)Oc1cc(CC(=O)CCCCC)c(C(=O)O)c(OC)c1
Group: rule met

Next:
q: Lab note: normalized growth threshold 1. Does this molecule come in strictly under it? O=c1c(O)c(-c2ccc(O)c(O)c2)oc2cc(O)cc(O)c12
a: rule met
